Value source: ChEMBL document CHEMBL1143579

# Tested on: Glutamate NMDA receptor; Grin1/Grin2b (Rattus norvegicus, UniProt P35439+Q00960)
# Sequence (Q00960 whole entry, other chains not shown): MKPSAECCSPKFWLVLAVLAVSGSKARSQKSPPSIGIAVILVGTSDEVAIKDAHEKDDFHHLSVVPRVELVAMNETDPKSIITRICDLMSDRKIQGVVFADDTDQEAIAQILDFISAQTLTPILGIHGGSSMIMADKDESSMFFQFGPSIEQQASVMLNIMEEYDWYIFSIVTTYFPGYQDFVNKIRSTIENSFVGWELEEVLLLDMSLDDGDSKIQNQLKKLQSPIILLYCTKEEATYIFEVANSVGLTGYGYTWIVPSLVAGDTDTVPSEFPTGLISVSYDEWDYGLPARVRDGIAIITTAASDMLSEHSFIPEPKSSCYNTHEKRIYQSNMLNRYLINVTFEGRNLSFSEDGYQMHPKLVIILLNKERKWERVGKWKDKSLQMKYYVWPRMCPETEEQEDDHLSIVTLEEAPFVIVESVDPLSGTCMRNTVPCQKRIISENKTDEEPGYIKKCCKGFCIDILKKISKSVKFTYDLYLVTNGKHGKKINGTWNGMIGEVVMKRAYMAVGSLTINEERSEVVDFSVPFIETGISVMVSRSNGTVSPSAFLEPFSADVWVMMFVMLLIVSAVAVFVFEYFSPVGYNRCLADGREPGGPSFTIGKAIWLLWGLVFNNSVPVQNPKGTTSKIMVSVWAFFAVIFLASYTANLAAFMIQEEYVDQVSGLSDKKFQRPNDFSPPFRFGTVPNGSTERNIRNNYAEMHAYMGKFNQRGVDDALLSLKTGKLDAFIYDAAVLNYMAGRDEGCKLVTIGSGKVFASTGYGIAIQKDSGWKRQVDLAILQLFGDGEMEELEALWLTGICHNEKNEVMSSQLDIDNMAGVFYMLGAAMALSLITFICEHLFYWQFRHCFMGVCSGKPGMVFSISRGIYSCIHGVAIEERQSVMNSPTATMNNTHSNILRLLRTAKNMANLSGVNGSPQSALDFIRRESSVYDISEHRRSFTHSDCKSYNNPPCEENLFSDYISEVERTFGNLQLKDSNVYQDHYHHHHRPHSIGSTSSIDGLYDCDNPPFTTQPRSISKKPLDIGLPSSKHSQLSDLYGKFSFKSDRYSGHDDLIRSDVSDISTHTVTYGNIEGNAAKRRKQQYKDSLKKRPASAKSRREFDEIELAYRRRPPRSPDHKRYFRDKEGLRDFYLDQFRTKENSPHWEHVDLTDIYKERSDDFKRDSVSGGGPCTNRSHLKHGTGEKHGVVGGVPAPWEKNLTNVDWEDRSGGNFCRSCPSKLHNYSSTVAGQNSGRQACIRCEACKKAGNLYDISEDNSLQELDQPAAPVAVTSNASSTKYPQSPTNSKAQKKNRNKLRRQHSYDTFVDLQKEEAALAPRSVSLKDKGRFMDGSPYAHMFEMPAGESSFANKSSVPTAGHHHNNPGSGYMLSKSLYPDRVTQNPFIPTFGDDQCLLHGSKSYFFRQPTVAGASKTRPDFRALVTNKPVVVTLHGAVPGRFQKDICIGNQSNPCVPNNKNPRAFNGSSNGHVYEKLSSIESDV
# Assay explanation: Inhibitory constant against (S)-glutamate and glycine evoked currents mediated by N-methyl-D-aspartate glutamate receptor NR1a/NR2B expressed in Xenopus oocytes
pKi: −log10 of the molar value.
Please use 1 (yes) whenever pKi is not below 5, and 0 (no) whenever it is.

N[C@H](CCCCCP(=O)(O)O)C(=O)O
1 (yes)
O=C(O)[C@H]1NCCN(C(=O)c2ccc(-c3ccccc3Br)cc2)[C@H]1C(=O)O
0 (no)
O=C(O)[C@H]1NCCN(C(=O)c2ccc3ccc4ccccc4c3c2)[C@H]1C(=O)O
0 (no)
O=C(O)[C@H]1NCCN(C(=O)c2ccc3c(c2)CCc2ccccc2-3)[C@H]1C(=O)O
1 (yes)
O=C(O)[C@H]1NCCN(C(=O)c2ccc(-c3ccccc3)cc2)[C@H]1C(=O)O
1 (yes)

--- query ---
[ask] // inclusive: pKi at least 5? input: `O=C(O)[C@H]1NCCN(S(=O)(=O)c2ccc(-c3ccccc3)cc2)[C@H]1C(=O)O`
[reply] 0 (no)

----------
Listed next: entries and their corresponding Ki.
# Tested on: Glutamate NMDA receptor; Grin1/Grin2c (Rattus norvegicus, UniProt P35439+Q00961)
# Sequence (Q00961 whole entry, other chains not shown): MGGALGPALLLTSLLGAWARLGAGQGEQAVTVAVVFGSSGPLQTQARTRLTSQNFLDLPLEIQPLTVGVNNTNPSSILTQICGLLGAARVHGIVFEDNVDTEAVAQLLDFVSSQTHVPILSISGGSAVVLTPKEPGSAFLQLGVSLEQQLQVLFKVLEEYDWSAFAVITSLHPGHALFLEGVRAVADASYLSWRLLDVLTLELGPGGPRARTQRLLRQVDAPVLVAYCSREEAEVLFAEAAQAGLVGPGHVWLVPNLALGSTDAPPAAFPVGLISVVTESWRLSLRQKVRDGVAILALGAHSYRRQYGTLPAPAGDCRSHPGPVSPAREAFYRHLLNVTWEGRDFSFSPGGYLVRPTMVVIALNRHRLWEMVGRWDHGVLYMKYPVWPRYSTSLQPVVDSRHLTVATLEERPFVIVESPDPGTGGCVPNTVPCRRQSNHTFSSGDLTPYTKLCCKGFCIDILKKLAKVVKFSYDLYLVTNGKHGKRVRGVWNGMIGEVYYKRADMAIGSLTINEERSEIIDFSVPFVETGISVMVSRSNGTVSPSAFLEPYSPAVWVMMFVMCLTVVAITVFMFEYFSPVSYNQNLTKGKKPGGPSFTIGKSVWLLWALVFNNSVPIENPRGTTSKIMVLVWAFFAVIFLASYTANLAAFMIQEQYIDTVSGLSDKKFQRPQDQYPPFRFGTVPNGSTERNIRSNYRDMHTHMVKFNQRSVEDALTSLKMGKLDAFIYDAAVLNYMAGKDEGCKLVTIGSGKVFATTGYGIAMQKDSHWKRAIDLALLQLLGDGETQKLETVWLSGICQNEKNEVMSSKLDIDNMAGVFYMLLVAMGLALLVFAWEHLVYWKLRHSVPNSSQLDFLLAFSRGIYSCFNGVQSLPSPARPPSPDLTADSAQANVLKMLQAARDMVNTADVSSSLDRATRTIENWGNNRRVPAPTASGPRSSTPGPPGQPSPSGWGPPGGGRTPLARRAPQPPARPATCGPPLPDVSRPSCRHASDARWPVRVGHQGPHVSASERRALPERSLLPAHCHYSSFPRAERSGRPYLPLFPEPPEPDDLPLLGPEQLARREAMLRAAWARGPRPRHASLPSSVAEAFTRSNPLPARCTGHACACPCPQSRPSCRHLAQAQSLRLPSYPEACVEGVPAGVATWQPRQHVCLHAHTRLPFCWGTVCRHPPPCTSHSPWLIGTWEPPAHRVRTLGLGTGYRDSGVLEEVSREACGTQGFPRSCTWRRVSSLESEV
# Assay explanation: Inhibitory constant against (S)-glutamate and glycine evoked currents mediated by N-methyl-D-aspartate glutamate receptor NR1a/NR2C expressed in Xenopus oocytes

O=C(O)[C@H]1NCCN(C(=O)/C=C/c2ccc3ccccc3c2)[C@H]1C(=O)O
0.85 µM
O=C(O)[C@H]1NCCN(C(=O)c2ccc3c(ccc4ccccc43)c2)[C@H]1C(=O)O
0.096 µM
O=C(O)[C@H]1NCCN(C(=O)c2ccc(-c3ccc(F)cc3)cc2)[C@H]1C(=O)O
7.38 µM
N[C@H](CCCP(=O)(O)O)C(=O)O
1.64 µM
O=C(O)[C@H]1NCCN(S(=O)(=O)c2ccc(-c3ccccc3)cc2)[C@H]1C(=O)O
8.67 µM
O=C(O)[C@@H]1NCCN(C(=O)c2ccc3c(ccc4ccccc43)c2)[C@H]1C(=O)O
4.88 µM
O=C(O)[C@H]1NCCN(C(=O)c2ccc3c(c2)Cc2ccccc2-3)[C@H]1C(=O)O
1.17 µM
O=C(O)[C@H]1NCCN(C(=O)c2ccccc2)[C@H]1C(=O)O
> 100 µM
O=C(O)[C@H]1NCCN(C(=O)c2ccc3ccccc3c2)[C@H]1C(=O)O
3.89 µM
C[C@H](NC(c1cccc2nc(O)c(O)nc12)P(=O)(O)O)c1ccc(Br)cc1 (some centres undefined)
0.0116 µM

[ask] Item: `O=C(O)[C@H]1NCCN(C(=O)c2ccc(-c3ccccc3Br)cc2)[C@H]1C(=O)O` Test system: Glutamate NMDA receptor; Grin1/Grin2c (Rattus norvegicus, UniProt P35439+Q00961) Read-out: Ki Value: ?
[reply] 8.49 µM

[ask] Next up: `O=C(O)[C@H]1NCCN(C(=O)c2ccc3ccc4ccccc4c3c2)[C@H]1C(=O)O`
[reply] 4.22 µM

[ask] Next up: `N[C@H](CCCCCP(=O)(O)O)C(=O)O`
[reply] 6.42 µM

[ask] Next up: `O=C1c2ccccc2-c2ccc(C(=O)N3CCN[C@H](C(=O)O)[C@@H]3C(=O)O)cc21`
[reply] 4.42 µM

----------
# Tested on: Glutamate NMDA receptor; Grin1/Grin2b (Rattus norvegicus, UniProt P35439+Q00960)
# Assay explanation: Inhibitory constant against (S)-glutamate and glycine evoked currents mediated by N-methyl-D-aspartate glutamate receptor NR1a/NR2B expressed in Xenopus oocytes
One threshold, 3000 nM, splits the recorded Ki values: lower ones are 1, equal or higher ones are -1.

Known results for molecules:
O=C(O)[C@H]1CN(CCCP(=O)(O)O)CCN1
1
O=C(O)[C@H]1NCCN(C(=O)/C=C/c2ccccc2)[C@H]1C(=O)O
-1
C[C@H](NC(c1cccc2nc(O)c(O)nc12)P(=O)(O)O)c1ccc(Br)cc1 (stereo partly specified)
1
O=C(O)[C@H]1NCCN(C(=O)c2ccccc2)[C@H]1C(=O)O
-1
O=C(O)[C@H]1NCCN(C(=O)c2ccc3c(c2)Cc2ccccc2-3)[C@H]1C(=O)O
-1

[ask] # strict comparison: is reported Ki < 3000 nM? input = `O=C(O)[C@H]1NCCN(C(=O)c2ccc3c(ccc4ccccc43)c2)[C@H]1C(=O)O`
[reply] 1

----------
# Tested on: Glutamate NMDA receptor; Grin1/Grin2b (Rattus norvegicus, UniProt P35439+Q00960)
# Assay explanation: Inhibitory constant against (S)-glutamate and glycine evoked currents mediated by N-methyl-D-aspartate glutamate receptor NR1a/NR2B expressed in Xenopus oocytes
Property name: pKi
Interpret pKi as the negative base-10 log of the concentration measured in mol/L.

The examples below pair each entry with its known result.
O=C(O)[C@H]1NCCN(Cc2ccc3c(ccc4ccccc43)c2)[C@H]1C(=O)O
4.99
O=C(O)[C@@H]1NCCN(C(=O)c2ccc3c(ccc4ccccc43)c2)[C@H]1C(=O)O
5.04

[ask] Reported pKi for `O=C1c2ccccc2-c2ccc(C(=O)N3CCN[C@H](C(=O)O)[C@@H]3C(=O)O)cc21` : what is it?
[reply] 5.03
